- Test system: Staphylococcus aureus ATCC 33591
- Format: cell-based
- Condition details: ATCC 33591, 24 h
- Method: Biofilm is associated with life-threating infections due to its outstanding resistance to antibiotics. In this study, the antibiofilm characteristics of USCLs and gemini surfactants were evaluated. The MBECs were determined as described previously using 96-well polystyrene flat-bottom plates. For this purpose, 24 h cultures of microorganisms were diluted to obtain a final density of 5.0 × 10^5 CFU/mL and 2.0 × 10^5 CFU/mL of bacteria and fungi, respectively. […] The MBEC was read after 1 h. […]
Where a SMILES comes first, the peptide text is derived from it. Bridges are numbered along the chain shown (N, C = ends). Roman numbers before positions name the chains, in order. Side-chain parts run from the residue outwards. The star is where a group is joined. Myristoyl = CCCCCCCCCCCCCC(=O)*; Octanoyl = CCCCCCCC(=O)*
# Lookup of reported MBEC Staphylococcus aureus ATCC 33591 keyed by entry
Lab book: enter the figure in µg/mL, no units written.

Answered cases to consult:
CCCCCCC(CCCC)C(=O)N[C@@H](CCCNC(=N)N)C(=O)N[C@@H](CCCNC(=N)N)C(=O)N[C@@H](CSSC[C@H](NC(=O)[C@H](CCCNC(=N)N)NC(=O)[C@H](CCCNC(=N)N)NC(=O)C(CCCC)CCCCCC)C(N)=O)C(N)=O (stereo partly shown) [Compound C7] ... 8
CCCCCCCC(=O)N[C@@H](Cc1ccccc1)C(=O)N[C@@H](CCCNC(=N)N)C(=O)N[C@@H](CCCNC(=N)N)C(=O)NCCCC[C@H](NC(=O)[C@H](CCCNC(=N)N)NC(=O)[C@H](CCCNC(=N)N)NC(=O)[C@H](Cc1ccccc1)NC(=O)CCCCCCC)C(N)=O [Compound B5] (Octanoyl-FRRK([Arg-Arg-Phe-Octanoyl])-NH2) ... 4

Request: What MBEC Staphylococcus aureus ATCC 33591 value was documented for this compound, CCCCCCCCCCCCCC(=O)N[C@@H](CCCNC(=N)N)C(=O)N[C@@H](CCCNC(=N)N)C(=O)NCCCC[C@H](NC(=O)[C@H](CCCNC(=N)N)NC(=O)[C@H](CCCNC(=N)N)NC(=O)CCCCCCCCCCCCC)C(N)=O [Compound B4] (Myristoyl-Arg-Arg-Lys([Arg-Arg-Myristoyl])-NH2) ?
Result: 128

Request: What MBEC Staphylococcus aureus ATCC 33591 value was documented for this compound, CCCCCCCC(=O)N[C@@H](CCCNC(=N)N)C(=O)N[C@@H](CCCNC(=N)N)C(=O)N[C@@H](CSSC[C@H](NC(=O)[C@H](CCCNC(=N)N)NC(=O)[C@H](CCCNC(=N)N)NC(=O)CCCCCCC)C(N)=O)C(N)=O [Compound C1] (I: Octanoyl-Arg-Arg-Cys-NH2 / II: Octanoyl-Arg-Arg-Cys-NH2; disulfide I:3-II:3) ?
Result: 32

Request: What MBEC Staphylococcus aureus ATCC 33591 value was documented for this compound, CCCCCCCCCCCCCC(=O)N[C@@H](CCCNC(=N)N)C(=O)N[C@@H](CCCNC(=N)N)C(=O)N[C@@H](CSSC[C@H](NC(=O)[C@H](CCCNC(=N)N)NC(=O)[C@H](CCCNC(=N)N)NC(=O)CCCCCCCCCCCCC)C(N)=O)C(N)=O [Compound C4] (I: Myristoyl-Arg-Arg-Cys-NH2 / II: Myristoyl-Arg-Arg-Cys-NH2; disulfide I:3-II:3) ?
Result: 128

Request: What MBEC Staphylococcus aureus ATCC 33591 value was documented for this compound, CCCCCCCC(=O)N[C@@H](CCCNC(=N)N)C(=O)N[C@@H](CCCNC(=N)N)C(=O)NCCCC[C@H](NC(=O)[C@H](CCCNC(=N)N)NC(=O)[C@H](CCCNC(=N)N)NC(=O)CCCCCCC)C(N)=O [Compound B1] (Octanoyl-Arg-Arg-Lys([Arg-Arg-Octanoyl])-NH2) ?
Result: 32
